- Assay system: human glucagon receptor (Homo sapiens)
- Construct: made in house; host or cells: FreeStyle CHO cells, transient transfection with pMSRαneo/hGCGR; membrane fraction (35,000 rpm pellet)
- Sequence (P47871 26-477): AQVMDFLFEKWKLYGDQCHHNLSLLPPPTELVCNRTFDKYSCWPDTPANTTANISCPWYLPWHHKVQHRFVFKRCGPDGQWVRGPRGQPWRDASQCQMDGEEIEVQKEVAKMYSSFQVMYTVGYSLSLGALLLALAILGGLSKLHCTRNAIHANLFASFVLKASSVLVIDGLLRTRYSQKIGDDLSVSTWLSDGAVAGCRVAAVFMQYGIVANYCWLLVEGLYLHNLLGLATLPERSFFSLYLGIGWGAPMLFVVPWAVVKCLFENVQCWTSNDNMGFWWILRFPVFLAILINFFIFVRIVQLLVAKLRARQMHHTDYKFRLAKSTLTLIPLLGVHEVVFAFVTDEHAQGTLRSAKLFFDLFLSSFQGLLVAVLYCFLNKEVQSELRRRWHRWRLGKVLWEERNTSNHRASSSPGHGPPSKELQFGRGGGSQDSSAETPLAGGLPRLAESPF
- Procedure summary: Glucagon binding inhibitory activity ([125I]-glucagon binding to glucagon receptor membrane protein)
- Measurement parameters: test compound 10 μM; 0.4% DMSO = 0%, non-labeled glucagon 1 μM = 100%; read-out: inhibitory rate (%) at 10 μM
Outcome measure: inhibition at 10 µM

INSERT INTO measurements (compound, readout_value) VALUES
  ('Cc1c(C(Nc2ccc(C(=O)N(C)CCC(=O)O)cn2)C2CCCCC2)oc2ccc(F)cc12 (stereo not drawn) [Example A52]', '64%'),
  ('Cc1c(C(Nc2ccc(C(=O)N(C)CCC(=O)O)cc2)C(C)C)oc2ccc(Oc3ccc(C(F)(F)F)cn3)cc12 (stereo not drawn) [Example A206]', '70%'),
  ('CCC(Nc1ccc(C(=O)N(C)CCC(=O)O)cc1)c1oc2ccc(OCc3ccccc3)cc2c1C (stereo not drawn) [Example A179]', '84%'),
  ('Cc1c(C(Nc2ccc(C(=O)NCCC(=O)O)cc2)C2CCCCC2)oc2cccc(F)c12 (stereo not drawn) [Example A161]', '84%'),
  ('CCCCCCC(Nc1ccc(C(=O)N(C)CCC(=O)O)cc1)c1cc2cc(Cl)ccc2n1C (stereo not drawn) [Example A141]', '86%'),
  ('Cc1c(C(C)Nc2ccc(C(=O)N(C)CCC(=O)O)cc2)oc2ccc(OCc3ccccc3)cc12 (stereo not drawn) [Example A166]', '75%'),
  ('Cc1c(C(Nc2ccc(C(=O)N(C)CCC(=O)O)cc2)C2CCCCC2)oc2ccc(Cl)cc12 (stereo not drawn) [Example A89]', '80%'),
  ('Cn1c(C(Nc2ccc(C(=O)NCCC(=O)O)cc2)C2CCCCC2)nc2ccccc21 (stereo not drawn) [Example A3]', '55%'),
  ('Cc1c(C(Nc2ccc(C(=O)NCCC(=O)O)cc2)C2CCCCC2)sc2ccncc12 (stereo not drawn) [Example A138]', '85%'),
  ('CCn1nc(-c2ccc(C(F)(F)F)cc2)cc1C(Nc1ccc(C(=O)NCCC(=O)O)cc1)C1CCCCC1 (stereo not drawn) [Example 56]', '76%'),
  ('Cc1nn(-c2ncc(C(F)(F)F)cc2Cl)cc1C(Nc1ccc(C(=O)N(C)CCC(=O)O)cc1)C1CCCCC1 (stereo not drawn) [Example 32]', '59%'),
  ('COc1nn(-c2ccc(OC(F)(F)F)cc2)cc1C(Nc1ccc(C(=O)N(C)CCC(=O)O)cc1)C1CCCCC1 (stereo not drawn) [Example 63]', '72%'),
  ('Cc1c(C(Nc2ccc(C(=O)N(C)CCC(=O)O)cc2)C2CCCCC2)oc2ccc(OCc3ccnc(F)c3)cc12 (stereo not drawn) [Example A168]', '90%'),
  ('COc1c(C(Nc2ccc(C(=O)N(C)CCC(=O)O)cc2)C2CCCCC2)oc2ccc(F)cc12 (stereo not drawn) [Example A214]', '75%'),
  ('COc1ncccc1-c1ccc2oc(C(Nc3ccc(C(=O)N(C)CCC(=O)O)cc3)C(C)C)c(C)c2c1 (stereo not drawn) [Example A183]', '88%');

###

For reference, IC50 measured on human glucagon receptor (Homo sapiens, UniProt P47871):
Outcome measure: IC50 (nM)

INSERT INTO results (compound, display_unit, readout_value) VALUES
  ('Cc1c(C(Nc2ccc(C(=O)N(C)CCC(=O)O)cn2)C2CCCCC2)oc2ccc(F)cc12 (single isomer, unassigned)', 'nM', 570),
  ('CC(C)c1nn(-c2ccc(C(F)(F)F)cn2)cc1C(Nc1ccc(C(=O)N(C)CCC(=O)O)cc1)C1CCCCC1 (stereo not shown)', 'nM', 410),
  ('Cc1nn(Cc2ccccc2)cc1C(Nc1ccc(C(=O)NCCC(=O)O)cc1)C1CCCCC1 (stereo not shown)', 'nM', 2300),
  ('CN(CCC(=O)O)C(=O)c1ccc(NC(c2nn(C)c3ccccc23)C2CCCCC2)cc1 (stereo not shown)', 'nM', 1800);
